- System: MCF7
- testDescription: NCI tumour cell line growth inhibition, 48 h
The source made the active and inactive calls. Rule as the data show it: active = GI50 up to about 1.1 µM and inactive = higher.
Labels: 1 (yes) = active, 0 (no) = inactive

compound=CC(=O)Nc1ccc2nc(-c3cccc(Cl)c3)cc(O)c2c1 assignedlabel="0 (no)"
compound="CCOC(=O)CCC(NC(=O)c1ccc(NCc2ccc3nc(-c4ccccc4)c(Cl)nc3c2)c2ccccc12)C(=O)OCC (stereo not drawn)" assignedlabel="0 (no)"
compound="C[C@H](C1CC(C)(O)C(C)(O)C(O)O1)[C@H]1CC[C@H]2[C@@H]3[C@@H]4O[C@@H]4[C@@]4(O)CC=CC(=O)[C@]4(C)[C@H]3CC[C@]12C (stereo partly drawn)" assignedlabel="0 (no)"
compound=CCOc1cc2c(cc1O)C(=O)C[C@@H]1[C@@H]2CC[C@]2(C)[C@@H](O)CC[C@@H]12 assignedlabel="1 (yes)"
compound="NC1NCCC(=O)N1CCc1c[nH]c2ccccc12 (stereo not drawn)" assignedlabel="0 (no)"
compound="COc1cc(O)c2c(c1)C(=O)c1cc3c(c(O)c1C2=O)C(OC1OC(C)C(O)C(O)C1OC)C(OC)C(C)(O)C3=O (stereo not drawn)" assignedlabel="0 (no)"
compound=CCn1c(-c2cc3ccccc3cc2OC(C)=O)n[nH]c1=S assignedlabel="0 (no)"
compound="Nc1ccn(C2OC(CO)C(O)C2(F)F)c(=O)n1 (stereo not drawn)" assignedlabel="1 (yes)"

====

- System: BT-549
- testDescription: NCI tumour cell line growth inhibition, 48 h
Activity calls are given as the source filed them. No stated cut-off is given here; in the data, active = GI50 up to about 1.1 µM and inactive = higher.
Possible outcomes: active, inactive

compound=COP(=N[Si](C)(C)C)(OC)OC assignedlabel=inactive
compound="COc1cc2cc(C(=O)N3CC(CCl)c4c3cc(N)c3ccccc43)[nH]c2cc1OCCN(C)C (centres undefined)" assignedlabel=active
compound=COC(=O)[C@]12CCC(C)(C)C[C@H]1[C@H]1C(=O)C=C3[C@@]4(C)C=C(C#N)C(=O)C(C)(C)[C@@H]4CC[C@@]3(C)[C@]1(C)CC2 assignedlabel=active
compound="OCC(Cn1cncn1)(c1ccc(F)cc1F)n1cncn1 (centres undefined)" assignedlabel=inactive
compound=CC(C)(Cc1ccccc1)Cc1cc(O)ccc1O assignedlabel=inactive
compound=COc1ccc2c(c1)-c1c(c3cc(OC)ccc3n1CCN1CCOCC1)CC2 assignedlabel=inactive
compound=C=CCOCn1cc(C)c(=O)[nH]c1=O assignedlabel=inactive
compound=CCOC(=O)c1nc2cc(C(F)(F)F)ccc2nc1Nc1ccc(C(=O)OC)s1 assignedlabel=inactive
compound=CC(C)=NN/C(=N\c1ccc(Cl)cc1)NS(=O)(=O)c1cc(Cl)c(Oc2ccc([N+](=O)[O-])cc2Cl)c(Cl)c1 assignedlabel=inactive

====

- System: TK-10
- testDescription: NCI tumour cell line growth inhibition, 48 h
Active and inactive are the calls of the source. No stated cut-off is given here; in the data, active = GI50 up to about 1.1 µM and inactive = higher.
Outcome codes: active, inactive

molecule=O=C(c1ccccc1)c1ccc2[nH]c(-c3c(Cl)c(Cl)c(Cl)c(Cl)c3C(=O)N/N=C/c3ccccc3)nc2c1 assayedtarget=TK-10 assignedlabel=inactive
molecule=c1ccc(C(Oc2noc3ccccc23)c2ccccc2)cc1 assayedtarget=TK-10 assignedlabel=inactive
molecule=COc1cccc([C@H]2CC(=O)c3cc4c(cc3N2)OCO4)c1 assayedtarget=TK-10 assignedlabel=active
molecule="COc1ccc(CC2c3cc(OC)c(OC)cc3CC[N+]2(C)C)cc1OC (stereo not given)" assayedtarget=TK-10 assignedlabel=inactive
molecule=C#CCNC(=O)N(CC#C)N=O assayedtarget=TK-10 assignedlabel=inactive
molecule="COCCCNC(=O)C1C(=O)N(CCCOC)C(=O)/C1=N\\N (stereo not given)" assayedtarget=TK-10 assignedlabel=inactive
molecule=CC(C)(N)C(=O)N[C@@H]1C(=O)N2[C@@H]1SC(C)(C)[C@@H]2C(=O)O assayedtarget=TK-10 assignedlabel=inactive
molecule=Cc1oc2ccccc2c(=O)c1Cn1nnc2ccccc21 assayedtarget=TK-10 assignedlabel=inactive
molecule="CC(NC(=O)C(N)CC(=O)O)C(=O)OC12CC3CC(CC(C3)C1)C2 (stereo not given)" assayedtarget=TK-10 assignedlabel=inactive
molecule=C[C@]12C=CC(=O)C=C1[C@@H](F)C[C@H]1[C@@H]3CC[C@](O)(C(=O)CO)[C@@]3(C)C[C@H](O)[C@@]12F assayedtarget=TK-10 assignedlabel=inactive

====

- Test system: HL-60
- testDescription: NCI tumour cell line growth inhibition, 48 h
Calls of active or inactive are those of the source. Rule as the data show it: active = GI50 up to about 1.1 µM and inactive = higher.
Outcomes: y (active), n (inactive)

molecule="C=C1C(=O)OC2CC(=C)C3CC=C(C)C3CC12 (stereo unspecified)" assayedtarget=HL-60 assignedlabel=n
molecule="CC(=O)OC1C[C@@H](C)C2(CC(c3ccoc3)OC2=O)C2CCC(O)C3(CO3)C12CO (stereo partly specified)" assayedtarget=HL-60 assignedlabel=n
molecule=O=c1cc(NNc2cccc(F)c2)[nH]c(=S)[nH]1 assayedtarget=HL-60 assignedlabel=n
molecule="CC1=NNC(=O)C1C(CC(=O)c1c[nH]c2ccccc12)C(=O)O (stereo unspecified)" assayedtarget=HL-60 assignedlabel=n
molecule=Cc1cn2c(/C=C3/C(=O)Nc4ccccc43)c(-c3ccccc3)nc2s1 assayedtarget=HL-60 assignedlabel=n
molecule=O=C1Nc2ccc(Br)cc2/C1=N/c1ccc2c(c1)OCO2 assayedtarget=HL-60 assignedlabel=n
molecule="O=C1N(c2ccccc2)N=C2c3ccncc3C3=NN(c4ccccc4)C(=O)C123 (stereo unspecified)" assayedtarget=HL-60 assignedlabel=y
molecule=CC1=NN(c2ccccc2)C(=O)/C1=C1\SC(c2ccccc2)(c2ccccc2)c2ccccc21 assayedtarget=HL-60 assignedlabel=n
molecule="Cc1ccc2c(c1)C(=O)C1(C2)Cc2c(C)cccc2C1=O (stereo unspecified)" assayedtarget=HL-60 assignedlabel=n
molecule="CC(C)(C)OC(=O)NC(Cc1ccc(OCc2ccccc2)cn1)C(=O)N1CCCC1 (stereo unspecified)" assayedtarget=HL-60 assignedlabel=n
molecule=Cc1c(Cl)nc(Nc2nc3ccccc3[nH]2)nc1Cl assayedtarget=HL-60 assignedlabel=n

====

- Test system: IGROV-1
- testDescription: NCI tumour cell line growth inhibition, 48 h
Calls of active or inactive are those of the source. No stated cut-off is given here; in the data, active = GI50 up to about 1.1 µM and inactive = higher.
Outcomes: TRUE (active), FALSE (inactive)

compound="COc1ccc(CC2c3cc(OC)c(OC)cc3CC[N+]2(C)C)cc1OC (centres undefined)" assignedlabel=FALSE
compound="COC1=C(C)C(=O)c2c(cc3c(c2O)C(C)(CCC=C(C)C)C(C)O3)C1=O (centres undefined)" assignedlabel=FALSE
compound="NNC(N)Nc1ccccc1 (centres undefined)" assignedlabel=FALSE
compound=O=C(N/C(=C\c1ccc(/C=C(\NC(=O)c2ccccc2)c2nc3c(O)nc(S)nc3[nH]2)cc1)c1nc2c(O)nc(S)nc2[nH]1)c1ccccc1 assignedlabel=FALSE
compound="COc1cc2cc(C(=O)N3CC(CCl)c4c3cc(N)c3ccccc43)[nH]c2cc1OCCN(C)C (centres undefined)" assignedlabel=TRUE
compound="O=C1CC2OCC=C3CN4CCC56c7ccccc7N1C5C2C3CC46O (centres undefined)" assignedlabel=FALSE
compound="CCCCCC[C@H]1CC(=O)C2CCCC[C@@]23CC[C@H](CCl)N13.CCCCCC[C@H]1CC(=O)C2CCCC[C@@]23C[C@H](Cl)CN13 (some centres undefined)" assignedlabel=FALSE
compound=CCC(=O)C(CCN1CCC2(CCCc3ccccc32)CC1)(c1ccccc1)c1ccccc1 assignedlabel=FALSE
compound=NS(=O)(=O)c1ccc(NC(=O)c2cccn3c(=O)c4ccccc4nc23)cc1 assignedlabel=FALSE

====

- System: CAKI-1
- testDescription: NCI tumour cell line growth inhibition, 48 h
The source made the active and inactive calls. No stated cut-off is given here; in the data, active = GI50 up to about 1.1 µM and inactive = higher.
Labels: active, inactive

compound=O=[As](O)(O)c1ccc2nc3cc([As](=O)(O)O)ccc3nc2c1 assignedlabel=inactive
compound=CN1C[C@H]2[C@@H](C1=O)[C@H](c1ccc([N+](=O)[O-])cc1)ON2C assignedlabel=inactive
compound="Cc1ccc(SCC(CF)OCn2cc(F)c(=O)[nH]c2=O)cc1 (stereo not drawn)" assignedlabel=inactive
compound=CN1C2=Nc3n(C)c4ccccc4[n+]3CN2c2ccccc21 assignedlabel=inactive
compound=Cc1cc(S(N)(=O)=O)c(SCc2nc(N)nc(N(C)C)n2)cc1Cl assignedlabel=inactive
compound="COC(=O)C(=O)C(C(=O)C=C(C)C)C(=O)C(=O)Nc1ccc(Cl)cc1C (stereo not drawn)" assignedlabel=inactive
compound=CCOc1cc2c(cc1O)C(=O)C[C@@H]1[C@@H]2CC[C@]2(C)[C@@H](O)CC[C@@H]12 assignedlabel=active
compound=C#CCNC(=O)N(CC#C)N=O assignedlabel=inactive

====

- System: NCI/ADR-RES
- testDescription: NCI tumour cell line growth inhibition, 48 h
Active and inactive are the calls of the source. Cut-off read from the data, not from the text of the source: active = GI50 up to about 1.1 µM and inactive = higher.
Possible outcomes: 1 (yes) (active), 0 (no) (inactive)

compound=CN1C2=Nc3n(C)c4ccccc4[n+]3CN2c2ccccc21 assignedlabel="0 (no)"
compound=Cc1cc(C)nc(NS(=O)(=O)c2ccc(Nc3c4ccccc4nc4c(C(=O)NCCCN(CCO)CCO)cccc34)cc2)n1 assignedlabel="0 (no)"
compound=CCOC(=O)c1nc2cc(C(F)(F)F)ccc2nc1Nc1ccc(OC)c(OC)c1 assignedlabel="0 (no)"
compound="CCCCc1ccc(Nc2nc3c(ncn3C3CC(O)C(CN=[N+]=[N-])O3)c(=O)[nH]2)cc1 (centres undefined)" assignedlabel="0 (no)"
compound=Cc1cc(C)c2c(n1)S(=O)(=O)N(CCCN1CCN(c3cccc(Cl)c3)CC1)C(C(=O)c1ccc(Br)cc1)=C2O assignedlabel="0 (no)"
compound="CC(=O)OC1C[C@@H](C)C2(CC(c3ccoc3)OC2=O)C2CCC(O)C3(CO3)C12CO (some centres undefined)" assignedlabel="0 (no)"
compound=CCOC(=O)c1nc2ccccc2nc1Nc1ccc(C(=O)OC)s1 assignedlabel="0 (no)"
compound=CCOc1cc2c(cc1O)C(=O)C[C@@H]1[C@@H]2CC[C@]2(C)[C@@H](O)CC[C@@H]12 assignedlabel="1 (yes)"
compound=Cc1ccc2c(/C=C/c3ccc(N(C)C)cc3)ccc(C(C)C)cc1-2 assignedlabel="0 (no)"

Data origin, for the record: ChEMBL document CHEMBL1201862
